Cited source for all entries: ChEMBL document CHEMBL5325412

# SUBJECT_OF_TEST: Quadruplex DNA
# METHOD_DESCRIPTION: Binding affinity to c-MYC G4- quadruplex DNA Pu22 (unknown origin) assessed as inhibition constant by SPR analysis
MEASURED_PROPERTY: Ki (µM)
One number for each entry, in µM.

Which Ki is reported for this molecule? `Cc1cnccc1N1CCN(c2nccc3c2nc(-c2c[nH]c4ccncc24)n3C)CC1`
0.328

---

# SUBJECT_OF_TEST: Mitogen-activated protein kinase 8 (Homo sapiens, UniProt P45983)
# Sequence (P45983 whole entry): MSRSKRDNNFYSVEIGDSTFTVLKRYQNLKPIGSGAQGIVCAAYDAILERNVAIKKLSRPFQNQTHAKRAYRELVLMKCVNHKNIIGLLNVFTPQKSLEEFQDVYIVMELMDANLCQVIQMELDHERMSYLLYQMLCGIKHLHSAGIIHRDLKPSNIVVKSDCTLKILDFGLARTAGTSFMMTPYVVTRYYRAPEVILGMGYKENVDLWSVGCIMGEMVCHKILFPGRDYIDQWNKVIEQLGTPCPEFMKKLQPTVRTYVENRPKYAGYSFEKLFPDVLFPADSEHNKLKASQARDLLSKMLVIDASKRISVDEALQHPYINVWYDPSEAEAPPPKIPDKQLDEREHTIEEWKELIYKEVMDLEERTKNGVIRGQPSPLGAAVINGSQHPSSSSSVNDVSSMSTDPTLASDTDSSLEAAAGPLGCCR
# METHOD_DESCRIPTION: Binding affinity to JNK1 (unknown origin) assessed as dissociation constant
MEASURED_PROPERTY: Kd (nM)
Numbers only, in nM.

Which Kd is reported for this compound? `O=C(/C=C/C(=O)c1ccc(F)c(F)c1)NCCOCCOCCNC(=O)c1cccnc1Oc1ccccc1`
1000
